Attribution: PubChem BioAssay (NCI)

Tested on: SN12C renal
procedure.details: NCI-60 one-dose screen, 48 h
test.settings: 10 µM unless noted
This is part of a sample that, as a whole, favours compounds with a hit. Of some 83,000 tested, about 20% had one in any assay. Active and inactive are the calls of the source. How the source made its calls: active means growth percent below 10; inactive means the rest.
// classify into active, inactive

[2H]C([2H])([2H])Oc1c(F)cccc1/C=C/C(=O)/C=C(O)/C=C/c1cccc(F)c1OC([2H])([2H])[2H] : inactive
C#Cc1cccc(Nc2ncnc3ccc(-c4cnc(Cl)c(NS(C)(=O)=O)c4)cc23)c1 : active

Challenge: For this molecule, state the assay outcome: O=C1N/C(=N/N=C(c2ccccc2)c2ccccc2)S/C1=C\c1ccc(Br)cc1
Response given: inactive

Challenge: What was the test verdict on CC(C)(C)n1cc(-c2ccnc(NCCNS(=O)(=O)c3cccc4ccccc34)c2)c(-c2cccc(O)c2)n1 ?
Response given: inactive

Challenge: Kindly provide the recorded test outcome for the following molecule: C[C@H]1c2ccccc2CN1CCCOc1cc2c(cc1OCC1CC1)C1(CCCC1)C(N)=N2
Response given: inactive

Challenge: Hi, sorry to bother you, what did the test record for CN1/C(=C/C=C/c2n(Cc3ccc4ccccc4c3)c(Cl)c(Cl)[n+]2Cc2ccc3ccccc3c2)Oc2ccccc21 ?
Response given: active

Challenge: Just curious, what result did CCCCC#Cc1c(I)n(C2OC(CO[Si](C)(C)C(C)(C)C)C3OC(C)(C)OC32)c(=O)[nH]c1=O (stereo not drawn) get here?
Response given: inactive

----------
Tested on: HCT-15 colon
procedure.details: NCI-60 one-dose screen, 48 h
test.settings: 10 µM unless noted
Experimental: Growth inhibition of the HCT-15 human tumor cell line is measured as a screen for anti-cancer activity. Cells are grown in 96 well plates and exposed to the test compound for 48 hours. Compounds are tested at a single concentration, which is 10^-5 M for most compounds. The reported endpoint is percent growth (GI% or GIPRCNT), where numbers from 0 - 100% represent growth inhibition, and numbers from -100% - 0 represent cell death. For example, a value of 40 represents 60% growth inhibition. […]
About 83,000 compounds went through this panel and 20% of them were active in at least one assay; those are over-represented in the sample as a whole. The source made the active and inactive calls. The calls were made as follows: active = growth percent below 10; inactive = the rest.
Use one of these outcomes when replying: active, inactive

# example entries with known answers
O=C1c2ccccc2-c2c1c1ccncc1c(=O)n2CCCn1ccnc1 : inactive
CCCCC#Cc1c(I)n(C2OC(CO[Si](C)(C)C(C)(C)C)C3OC(C)(C)OC32)c(=O)[nH]c1=O (stereo not given) : inactive
Cn1ccnc1C(=O)/C=C/c1ccc(C(=O)Nc2c(F)c(F)c(F)c(F)c2F)cc1 : active
Cc1ccccc1NC(=O)Cn1cc(CN2CCN(c3ccnc4cc(Cl)ccc34)CC2)nn1 : inactive
COc1ccc(C(=O)/C=C/c2ccc(Cl)cc2)cc1S(N)(=O)=O : inactive

Challenge: Assay outcome for CCOC(=O)c1c(N)sc2cc(O)ccc12 : what was it?
Response given: inactive

Challenge: Tell me the recorded outcome of this test for CCCN1C(=O)N(CCC)C2C1NC(=S)N2/N=C/C=C/c1ccccc1OC (stereo not given) .
Response given: inactive

Challenge: // param item: Clc1ccc(C2=Nn3c(nnc3-c3cc(Cl)cc(Cl)c3Cl)SC2)cc1 ; yields the recorded call
Response given: inactive

Challenge: Per the records of this test, what outcome belongs to COC(=O)[C@H](C)NC(=O)c1ccc(NC(=O)c2[nH]c(C)c(Cl)c2Cl)c(OCCN)c1 ?
Response given: inactive

Challenge: What classification did COc1ccc(Cn2cc(C(=O)N=Nc3c(O)[nH]c4ccc(Br)cc34)nn2)cc1 end up with in this test?
Response given: inactive

----------
System: RPMI-8226 leukemia
procedure.details: NCI-60 one-dose screen, 48 h
test.settings: 10 µM unless noted
About 83,000 compounds went through this panel and 20% of them were active in at least one assay; those are over-represented in the sample as a whole. Calls of active or inactive are those of the source. Rule for the calls: active = growth percent below 10; inactive = the rest.
Please answer using one outcome listed in active, inactive

O=C(Nc1ncc(Cc2ccccc2)s1)c1cc(-c2ccccc2)nc2ccccc12 : inactive
CN1CCN(c2ccc(Nc3ncc4[nH]c(=O)n(Cc5ccccc5N)c4n3)cc2)CC1 : inactive
Nc1nc(Nc2ccc([N+](=O)[O-])cc2O)nc(C(Cl)(Cl)Cl)n1 : inactive
Cc1cc(=O)oc2cc(Oc3nc(-c4ccccc4)cn4c(-c5ccccc5)cnc34)ccc12 : inactive
Clc1ccc(C2=Nn3c(nnc3-c3cc(Cl)cc(Cl)c3Cl)SC2)cc1 : inactive
CCN1CCN(C(=O)[C@]23CC[C@@H](C)[C@H](C)[C@@H]2C2=CC[C@@H]4[C@@]5(C)C/C(=C/c6ccncc6)C(=O)C(C)(C)[C@@H]5CC[C@@]4(C)[C@]2(C)CC3)CC1 : active
CCCC[N+]1(C)CCN=C1Cc1ccccc1 (stereo not given) : inactive
CC(C)n1cc(C2=C(c3cccc4ccccc34)C(=O)NC2=O)c2cc(Br)ccc21 : inactive
O=C1CCc2c(sc3[nH]c(=S)n(-c4cc(C(F)(F)F)cc(C(F)(F)F)c4)c(=O)c23)C1 : active

Challenge: // param item: CCC(=C(c1ccc(OCCN(CC)CC)cc1)c1ccc(OCCN(CC)CC)cc1)c1ccc(Cl)cc1 ; yields the recorded call
Response given: active

----------
Tested on: NCI-H23 lung
procedure.details: NCI-60 one-dose screen, 48 h (100 = growth as untreated, 0 = no growth, -100 = all killed)
test.settings: 10 µM unless noted
Compounds without any hit were thinned out: in the full panel of roughly 83,000, 20% have a hit.
Simple rule here: growth less than 70% is Met, otherwise Not met.

CC1=NC(=S)NC(c2ccccc2)/C1=C1/CC(c2ccccc2O)NN1 (stereo not given) : Not met
COc1cccc(C(=O)Nc2cccc(NC(=O)c3ccccn3)c2)c1 : Not met
COC(=O)c1c(C)nc(C)c2c1C(=O)C(Br)=C(NCCCCO)C2=O : Met
CC(C)(C)c1ccc(C(=O)Nc2sc3c(c2C#N)CCC(=O)C3)cc1 : Met
C#Cc1c(I)n(C2OC(CO[Si](C)(C)C(C)(C)C)C3OC(C)(C)OC32)c(=O)[nH]c1=O (stereo not given) : Not met
CN1CCN(Cn2nc(-c3cc(Cl)cc(Cl)c3Cl)oc2=S)CC1 : Not met
COc1ccc(/C(C)=C(\c2ccc(Cl)cc2)c2ccc(OCCCN(C)C)cc2)cc1 : Not met
C[C@H]1c2ccccc2CN1CCCOc1cc2c(cc1OCC1CC1)C1(CCCC1)C(N)=N2 : Met

Challenge: Check if growth falls below 70% for C#CCOc1cccc(Nc2c(Cl)c(CCl)nc3ccc(Oc4ccccc4)cc23)c1 .
Response given: Met

Challenge: Answer whether the compound COc1ccc(NC(=O)c2ccc(NC3=C(c4ccc(Cl)cc4)C(=O)NC3=O)cc2)cc1 has growth strictly less than 70%
Response given: Not met

----------
Test system: SNB-19 CNS
procedure.details: NCI-60 one-dose screen, 48 h
test.settings: 10 µM unless noted
About 83,000 compounds went through this panel and 20% of them were active in at least one assay; those are over-represented in the sample as a whole. Active and inactive are the calls of the source. The calls were made as follows: active = growth percent below 10; inactive = the rest.
Please state which outcome applies, choosing from active, inactive

Challenge: # outcome recorded in this test, key = CCCS(=O)(=O)Nc1cccc(Nc2ncnc3cc(NC(=O)CCl)ccc23)c1Cl
Response given: active

Challenge: # fetch the recorded call for CCN1C(=O)N(CC)C2C1NN=c1s/c(=C\c3ccccc3)c(=O)n12 (stereo unspecified) here
Response given: inactive

Challenge: // param item: COc1nc2ccccc2cc1/C=C1/C=C(c2ccccc2)NC1=O ; yields the recorded call
Response given: inactive

Challenge: What outcome does the record of this test show for Cc1c2cnccc2c(C)c2c1c1cc(C(=O)O)ccc1n2C ?
Response given: active

Challenge: Could you please tell me the result logged for CN(Cc1ccccc1)c1nc(Cl)c(C2CC(c3ccc(Cl)cc3)=NN2c2cc(Cl)cc(Cl)c2)s1 (stereo unspecified) in this assay?
Response given: inactive

----------
Test system: CAKI-1 renal
procedure.details: NCI-60 one-dose screen, 48 h
test.settings: 10 µM unless noted
The panel holds about 83,000 compounds, 20% with a hit somewhere; the sample as a whole holds those more often. Calls of active or inactive are those of the source. How the source made its calls: active means growth percent below 10; inactive means the rest.
Output constraint: value belongs to y = active, n = inactive

The examples below pair each entry with its known result.
Nc1nc(N)c2c(n1)NC(c1cccc(Nc3ccnc4cc(C(F)(F)F)ccc34)c1)CC(c1ccc(Cl)cc1)=N2 (centres undefined) : n
CC(C)(C)n1cc(-c2ccnc(NCCNS(=O)(=O)c3ccc(Br)cc3)c2)c(-c2cccc(O)c2)n1 : n
Nc1ncc(-c2ccc3ncnc(N4CCc5cc(F)c(Cl)cc54)c3c2)cn1 : n
COc1cccc2cc(N(C)c3ncnc4ccccc34)ccc12 : n
Cc1ccc(C2(C)NC(=O)N(CC(=O)Nc3cccc(C)c3)C2=O)cc1 (centres undefined) : n
O=C1C(Nc2ccc(Br)cc2)=C(I)C(=O)c2ncccc21 : n
O=C(N/N=C/c1ccccc1Cl)c1ccccc1Nc1ccnc(C(F)(F)F)c1 : y
CO[C@H]1/C=C/O[C@@]2(C)Oc3c(C)c(O)c4c(O)c(c5c(nc6cc(C)ccn65)c4c3C2=O)NC(=O)/C(C)=C\C=C\[C@H](C)[C@H](O)[C@@H](C)C(O)[C@@H](C)[C@H](OC(C)=O)[C@@H]1C (some centres undefined) : n
COC(=O)c1nc(-c2ccccc2)oc1S(=O)(=O)NCC(c1ccc(Cl)cc1)N1CCCCC1 (centres undefined) : n
COc1cccc(/C=C2\CCc3ccccc3C2=O)c1 : n

Challenge: State the result this test recorded for COc1ccc(C(=O)/C=C/Nc2cc(-c3ccccc3)nn2-c2ccccc2)cc1 .
Response given: n

Challenge: Which outcome was assigned to CNC1=C([N+](=O)[O-])C(c2ccc(OC)cc2)C(C#N)=C(c2ccc[nH]2)O1 (centres undefined) in this test?
Response given: n

Challenge: Look up the recorded call for N#CSCc1cc(Cl)c(CSC#N)cc1Cl in this test.
Response given: n

Challenge: Please indicate how the test categorized O=C1NC(=O)C(=Cc2cc(-c3ccc(Cl)cc3)n(-c3ccccc3)n2)C(=O)N1 .
Response given: n

Challenge: Could you please tell me the result logged for C(=N\Nc1nnc2n1N=C(c1ccccc1)CS2)/c1ccc(OCc2ccccc2)cc1 in this assay?
Response given: n

Challenge: // return assay outcome for CCN=c1sc2c(n1NC(=O)c1cc3ccc1CCc1ccc(cc1)CC3)C(=O)c1ccccc1C2=O
Response given: y

Challenge: Please indicate how the test categorized CSc1nc(N)c2c(n1)NC(c1ccccc1)C1CCc3ccccc3C1=N2 (centres undefined) .
Response given: n

Challenge: Query: recorded result category for OC1CSSC1Cn1cnc2c(Nc3ccc(F)c(Cl)c3)ncnc21 (centres undefined) in this test
Response given: n

Challenge: Would you mind telling me which call this test gave Cn1cc(-c2nc(-c3c[nH]c4c(Cl)nccc34)cs2)c2ccccc21 ?
Response given: n
